Reference for the values: the supplement of paper PMC9170038

system: MS2 coat protein; test: apparent KD of MS2 coat protein; designed switch direction (-1 OFF switch, 1 ON switch): 1; higher = weaker reporter binding; conditions: input ligand: none
// thresholds for apparent KD of MS2 coat protein classes: low: < 40 nM; moderate: ≥ 40 nM and < 300 nM; high: ≥ 300 nM

# querySequence, groupLabel
rows = [
    ("GUUACAUGAGGAUCACCCAUGUAUGUGUGGGAGUAAGUGACUUAGGAUAUCUAAUAUUUAAAUUAAGAGAAGGAAGAUUGUUGU [JMF's solution 5] (Eterna round: R96, puzzle: Same State NG 3)", "moderate"),
    ("GAGGGACAGACCAACAUGAGGAUCACCCAUGUCCUCGCAGUUCAGGAUAUCCGGAGGUAGACGAAGGAGAAGGGAAGGUGAACC [AK SSNG3-V2-36] (Eterna round: R96, puzzle: Same State NG 3)", "moderate"),
    ("AGUCCAGCCAGAGCUGGACAAAAGCAUGUACAUGAGGAUCACCCAUGUUCAUGUACAAGCUUUUUGCAAGUCAAAAU [Mat - hsa-mir-208a - Mod of JL - 83] (Eterna round: R96, puzzle: Sensor for hsa-mir-208a)", "high"),
    ("AGGCUCAGACGAGGAUAUAUGUAAUAACAUGAGGAUCACCCAUGUGUCGAGCUUCGGCUCGACACAUAGAAGGCGUCUGAGCCA [SSNG2/2-A1] (Eterna round: R96, puzzle: Same State NG 2)", "low"),
    ("GGUCCAGCCUGAGCUGGACAAAAGCAUGUACAUGAGGAUCACCCAUGUCAUGUACAAGCUUUUUGCUCGUCUUAAGU [Mat - hsa-mir-208a - 86] (Eterna round: R96, puzzle: Sensor for hsa-mir-208a)", "high"),
    ("UGGCUCAGACGAGGAUAUAUGUGGUCACAUGAGGAUCACCCAUGUCUCGAGCUUCGGCUCGAGGCAUAGAAGGUGUCUGAGCCA [SSNG2/5-C2] (Eterna round: R96, puzzle: Same State NG 2)", "low"),
    ("GCGGAACGGUGUGACAUGAGGAUCACCCAUGUAACCUCAUGUAAGGAUAUCGGGAAGAAGAAAACCGAGAAGGUACGGUGACGC [AK SSNG3-V2-29] (Eterna round: R96, puzzle: Same State NG 3)", "high"),
    ("GAGUGGCAGUAAGGAUAUAUAAUGAUAAUCACAGUAGAAGGUACUGACAUGAGGAUCACCCAUGUAGGACUAAACCAGAGAGAG [Parity 43 - Jieux - Same State NG 1] (Eterna round: R96, puzzle: Same State NG 1)", "low"),
    ("AUUCGAUAGAUAGGAUAUCACCAUACAUGAGGAUCACCCAUGUUGACCACGCUGGUUAUUCAUACUGAGAAGGAUCUUGAUGAC [JR_SSNG2_Sub005] (Eterna round: R96, puzzle: Same State NG 2)", "moderate"),
    ("UUAGUCAUGUAAGGAUAUGCAGCCGUUUCGGCUGCAGAAGGUACUAUAAUUACAUGAGGAUCACCCAUGUUAUAAAAUUUAUAU [JL SSNG1 1.24] (Eterna round: R96, puzzle: Same State NG 1)", "low"),
]
